# System: Plasmodium falciparum NF54 stage IV/V gametocytes
# ASSAY REMARKS: % inhibition of gametocyte viability (ATP bioluminescence); higher = more inhibition
# PROTOCOL CONDITIONS: 5 µM; 24 h
PROPERTY: % inhibition of gametocyte viability (%)

                                    compound                             tested_system                              property  readout_units  qualifying_sign  recorded_number
 0  CN(C)CCCNC(=O)c1ccc(-c2cc(O)c3ncccc3c2)cc1  Plasmodium falciparum NF54 stage IV/V gametocytes  % inhibition of gametocyte viability              %                =             81.1
 1  CC(=O)Oc1ccccc1C(=O)Nc1ncc([N+](=O)[O-])s1  Plasmodium falciparum NF54 stage IV/V gametocytes  % inhibition of gametocyte viability              %                =                5
 2  CC(C)(C)c1cccc(-c2nc3cc(C(=N)N)ccc3[nH]2)c1O  Plasmodium falciparum NF54 stage IV/V gametocytes  % inhibition of gametocyte viability              %                =             3.93
 3           O=C(NCc1ccccc1Cl)c1cnc2ccccc2n1  Plasmodium falciparum NF54 stage IV/V gametocytes  % inhibition of gametocyte viability              %                <                0
 4  NC1C2CC3CC(C2)CC1C3 (stereo unspecified)  Plasmodium falciparum NF54 stage IV/V gametocytes  % inhibition of gametocyte viability              %                =             5.87
 5  CO/N=C(\C(=O)N[C@@H]1C(=O)N2C(C(=O)OCOC(=O)C(C)(C)C)=C(/C=C\c3scnc3C)CS[C@H]12)c1csc(N)n1  Plasmodium falciparum NF54 stage IV/V gametocytes  % inhibition of gametocyte viability              %                =             5.98
 6  CC(C)Oc1ccc(-n2cnc3cc(/C=C\c4ccc(C(C)(C)O)cc4)ccc32)cc1  Plasmodium falciparum NF54 stage IV/V gametocytes  % inhibition of gametocyte viability              %                <                0
 7  O=C(/C=C/n1cnc(-c2cc(C(F)(F)F)cc(C(F)(F)F)c2)n1)NNc1cnccn1  Plasmodium falciparum NF54 stage IV/V gametocytes  % inhibition of gametocyte viability              %                <                0
 8  COc1ccc(CNC(=O)C(NS(=O)(=O)c2ccc3nc(C)sc3c2)C(C)C)cc1 (stereo unspecified)  Plasmodium falciparum NF54 stage IV/V gametocytes  % inhibition of gametocyte viability              %                <                0
 9        O=C(NCCN1CCCCC1)c1cccc(C(F)(F)F)c1  Plasmodium falciparum NF54 stage IV/V gametocytes  % inhibition of gametocyte viability              %                =             2.48
10  COc1ccc(C)cc1NC(=O)c1ccc(S(=O)(=O)N2CCCCC2)cc1  Plasmodium falciparum NF54 stage IV/V gametocytes  % inhibition of gametocyte viability              %                <                0

Sourced from the supplement of paper PMC7801607
